Field: GI50. Provide a value for each of the molecules that follow.
# System: BT-549
# method-description: NCI tumour cell line growth inhibition, 48 h
Activity calls are given as the source filed them. Cut-off read from the data, not from the text of the source: active = GI50 up to about 1.1 µM and inactive = higher.

# example entries with known answers
{"molecule": "Cc1ccc(S(=O)(=O)NC(=O)NCC(=O)NCC(=O)O)cc1", "GI50": "> 100 µM (inactive)"}
{"molecule": "O=C(O)/C=C/c1ccc(Oc2ccccc2C(=O)O)o1", "GI50": "> 10 µM (inactive)"}
{"molecule": "Nc1nc(SCc2ccccc2)c2ncn(Cc3ccccc3)c2n1", "GI50": "> 100 µM (inactive)"}
{"molecule": "COc1cc(S(=O)(=O)Nc2ccc(-c3csc(N4C(=O)C(C)SC4c4cccc(Oc5ccccc5)c4)n3)cc2)ccc1Cl (stereo unspecified)", "GI50": "26.7 µM (inactive)"}

Value sought for every listed molecule: GI50.
1. CCOc1cc2oc(C)cc(=O)c2c(OC)c1/C=N/c1ccc(Cn2c(C)nc3ccccc32)cc1
2. CCOP(=O)(OCC)/C(C#N)=C(\C)c1ccco1
3. CC(C)c1ccc2c(c1)/C(=C1/Nc3ccccc3/C1=N/O)C(=O)N2
4. CC(C)(C)C(=O)OC(N)/C=C/c1ccccc1 (stereo unspecified)
5. Cc1[nH]c2ncn3ncnc3c2c1Cc1ccccc1
6. O=C(O)C[n+]1cn(NC(=O)Cc2ccccc2)cn1
7. COc1ccc2nc3c(nc2c1)C(C)(C)C=C3c1ccc(Br)cc1

1. > 100 µM (inactive)
2. > 10 µM (inactive)
3. 7.13 µM (inactive)
4. > 100 µM (inactive)
5. > 100 µM (inactive)
6. > 10 µM (inactive)
7. > 100 µM (inactive)

====

# Tested on: HT-29
# method-description: NCI tumour cell line growth inhibition, 48 h
Activity calls are given as the source filed them. Rule as the data show it: active = GI50 up to about 1.1 µM and inactive = higher. Where a SMILES comes first, the peptide text is derived from it. The star is where a group is joined. Fmoc = O=C(OCC1c2ccccc2-c2ccccc21)*; OtBu = CC(C)(C)O*
Bench note: report the call from active, inactive

{"molecule": "Cc1[nH]c2ncn3ncnc3c2c1Cc1ccccc1", "assigned-category": "inactive"}
{"molecule": "O=C1CSc2nnc(CCCCCCCCc3nnc4n3NC(=O)CS4)n2N1", "assigned-category": "inactive"}
{"molecule": "CC1(C)[C@@H]2C[C@H]1c1cnc(-c3ccccn3)cc1C2CCCCC[C@@H]1c2cc(-c3ccccn3)ncc2[C@@H]2C[C@H]1C2(C)C (stereo not given in full)", "assigned-category": "active"}
{"molecule": "CC(=O)/N=C1/N(/C=C2\\C(=O)Oc3ccccc3C2=O)C(=O)/C(=C/c2cccc(Cl)c2Cl)N1C", "assigned-category": "inactive"}
{"molecule": "COC(=O)C12OCC34C(CC5C(C)C6=CC(=O)OC6=CC5(C)C3C(O)C1O)OC(=O)C(O)C24 (stereo not given)", "assigned-category": "active"}
{"molecule": "CC(C)C(NC(=O)OCC1c2ccccc2-c2ccccc21)C(=O)NC(CCC(=O)OC(C)(C)C)C(=O)OC(C)(C)C (stereo not given) (Fmoc-Val-Glu(OtBu)-OtBu; configuration not given here)", "assigned-category": "inactive"}
{"molecule": "CC(=O)OCc1cc(=O)n2c([nH]c3ccccc32)c1C#N", "assigned-category": "inactive"}
{"molecule": "CCc1nc(N)nc(N)c1-c1ccc(N2CCNCC2)cc1", "assigned-category": "inactive"}

I would be grateful if you could indicate the recorded call for "O=C(c1ccc(O)c([N+](=O)[O-])c1)c1ccc(O)c([N+](=O)[O-])c1" .
inactive

Consider next the molecule "CN(C)CCNC(=O)c1ccc(Cl)c2ccc(-c3ccccc3)nc12" in the same way.
inactive

Another molecule to check: "O=C(O)/C=C/c1ccc(Oc2ccccc2C(=O)O)o1"
inactive

Another molecule: "CCOC(=O)c1cc(C)nc2c1c(=O)n(-c1ccccc1)c(=O)n2CCCCN1CCN(c2ccccc2)CC1"
inactive

====

# Tested on: U-251
# method-description: NCI tumour cell line growth inhibition, 48 h
Activity calls are given as the source filed them. Rule as the data show it: active = GI50 up to about 1.1 µM and inactive = higher.
Pick from 1 (yes) = active, 0 (no) = inactive when you respond.

{"molecule": "CCOC(=O)C(=O)C1C(=O)Nc2ccccc21 (stereo not given)", "assigned-category": "0 (no)"}
{"molecule": "CC(=O)/N=C1/N(/C=C2\\C(=O)Oc3ccccc3C2=O)C(=O)/C(=C/c2cccc(Cl)c2Cl)N1C", "assigned-category": "0 (no)"}
{"molecule": "CCCCCC1CC=CC(NC(=O)OCc2ccccc2)C1/C=C/CCCC1OCCO1 (stereo not given)", "assigned-category": "0 (no)"}
{"molecule": "O=c1[nH]nc(-c2cccc([N+](=O)[O-])c2)[nH]1", "assigned-category": "0 (no)"}
{"molecule": "CC(C)Cc1cnc(CC(C)C)c(=O)[nH]1", "assigned-category": "0 (no)"}

Fill in: this test's call for "O=S(=O)(/C=C/c1ccc(Cl)cc1Cl)Cc1ccccc1CS(=O)(=O)/C=C/c1ccc(Cl)cc1Cl" is ___
0 (no)

And for "O=S(O)c1cc(Cl)cc(Cl)c1OCc1ccccc1" ?
0 (no)

Also CC1CC=CC(O)C1 (stereo not given) ?
0 (no)

# repeat for "Cc1cnc(-n2c(C)nc3cc(Cl)ccc3c2=O)s1"
0 (no)

Entry to check: CCCCCCC1=NOC(C(c2cc[nH]c2)N(C)[C@H](C(=O)OC)C(C)C)C1 (stereo not given in full)
0 (no)

====

Exercise: for every item that follows, state its recorded GI50.
# System: KM-20L2
# method-description: NCI tumour cell line growth inhibition, 48 h
Activity calls are given as the source filed them. Cut-off read from the data, not from the text of the source: active = GI50 up to about 1.1 µM and inactive = higher.

Example entries and their recorded answers appear below.
{"compound": "Nc1nc(SCc2ccc([N+](=O)[O-])cc2)nc2c1ncn2C1OC(CO)C(O)C1O (stereo unspecified)", "GI50": "> 100 µM (inactive)"}
{"compound": "CC(C)(C)c1nc2c(o1)C(=O)c1ccccc1C2=O", "GI50": "22.1 µM (inactive)"}
{"compound": "N#CC(C(=O)CCC(=O)Nc1ccc(Cl)cc1)c1ccc(Cl)cc1 (stereo unspecified)", "GI50": "11.5 µM (inactive)"}
{"compound": "COC(=O)C12C3C4C1C1C2C3C41C(=O)OC(C)(C)C (stereo unspecified)", "GI50": "> 100 µM (inactive)"}
{"compound": "CCCCCC1CC=CC(NC(=O)OCc2ccccc2)C1/C=C/CCCC1OCCO1 (stereo unspecified)", "GI50": "> 100 µM (inactive)"}
{"compound": "CCN(CC)CCOC(=O)Cc1cccc2c(=O)cc(-c3ccccc3)oc12", "GI50": "95.3 µM (inactive)"}
{"compound": "O=S(=O)(O)C1=C2Sc3ccccc3N=C2c2ccccc2C1", "GI50": "18.4 µM (inactive)"}
{"compound": "Cc1noc(C)c1C1=CCCCc2ccccc21", "GI50": "> 100 µM (inactive)"}

For each of the items listed, what is its GI50?
1. COC(=O)C1CC(=O)O[C@H]1c1ccc(OC)c(OC)c1 (stereo partly specified)
2. Cc1ccc(S(=O)(=O)N/N=C/c2oc(-c3ccccc3Cl)c(-c3ccccc3Cl)c2[N+](=O)[O-])cc1

1. > 100 µM (inactive)
2. 15.4 µM (inactive)

Please go through the list and note GI50 for each compound.
1. OCC1C2C=CC(O2)[C@H]1CO (stereo partly specified)
2. COC(=O)C(C(=O)C(=O)Nc1cccc(O)c1)c1nc2ccc(Cl)cc2nc1O (stereo unspecified)
3. C[C@]12CCC(=O)C=C1CC[C@@H]1C2CC[C@@]2(C)C1CC[C@@H]2OC(=O)C12OC1CCC2=O (stereo partly specified)
4. Cc1ccc(S(=O)(=O)NNS(C)(=O)=O)cc1
5. Cc1nc(-n2nc(-c3ccccc3)cc2-c2ccccc2)sc1C(=O)/C=C/c1ccc(Cl)cc1
6. Nc1ccn(C2OC(C(O)CO)C(O)C2O)c(=O)n1 (stereo unspecified)

1. > 100 µM (inactive)
2. > 100 µM (inactive)
3. 18.7 µM (inactive)
4. > 100 µM (inactive)
5. 24.4 µM (inactive)
6. > 100 µM (inactive)

====

Hi there, I'd appreciate the recorded GI50 for every entry that follows.
# Tested on: OVCAR-5
# method-description: NCI tumour cell line growth inhibition, 48 h
Activity calls are given as the source filed them. No stated cut-off is given here; in the data, active = GI50 up to about 1.1 µM and inactive = higher.

Below, each entry is followed by its recorded GI50 result.
{"molecule": "COc1nc(C)nc2sc3c(c12)CCCC3", "assay-system": "OVCAR-5", "property-label": "GI50", "result": "> 100 µM (inactive)"}
{"molecule": "COC(=O)C(C(=O)C(=O)Nc1cccc(O)c1)c1nc2ccc(Cl)cc2nc1O (stereo unspecified)", "assay-system": "OVCAR-5", "property-label": "GI50", "result": "> 100 µM (inactive)"}
{"molecule": "CC(c1ccccc1)N1CC(C)(c2ccccc2)N(O)C(c2ccccc2)C1C (stereo unspecified)", "assay-system": "OVCAR-5", "property-label": "GI50", "result": "16.9 µM (inactive)"}
{"molecule": "CCn1cc(C(=O)O)c(=O)c2cc3c(cc21)S(=O)(=O)CC3", "assay-system": "OVCAR-5", "property-label": "GI50", "result": "> 100 µM (inactive)"}
{"molecule": "CCCCCCCCCCCCCCCCOP(=O)(O)OCC(N)C(=O)O (stereo unspecified)", "assay-system": "OVCAR-5", "property-label": "GI50", "result": "20.4 µM (inactive)"}

State recorded GI50 for all listed molecules.
1. Cc1[nH]n(-c2nc3c(c(=O)[nH]2)CCC3)c(=O)c1CCO
2. O=C(COc1ccccc1)NS(=O)(=O)c1ccccc1

1. > 100 µM (inactive)
2. > 100 µM (inactive)

# batch size: 4; output GI50 per entry
1. O=C(O)C1CCCCN1CCc1c[nH]c2ccccc12 (stereo unspecified)
2. CC(=O)OCC1OC(n2c(=S)n(-c3ccccc3)c(=O)c3cc(Br)ccc32)C(OC(C)=O)C(OC(C)=O)C1OC(C)=O (stereo unspecified)
3. CN(C)CCCN1c2ccccc2Sc2ccc3ccccc3c21
4. c1cc(CSSCc2ccncc2)ccn1

1: > 100 µM (inactive); 2: > 100 µM (inactive); 3: 11.3 µM (inactive); 4: 55.5 µM (inactive)
